- method: AA5225_IC50_IP (Table 4, assay code not explained)
- condition_parameters: internal assay code
observable: IC50
Quote the value and follow it with the unit of measurement.

See these solved cases before continuing.
- substance_smiles: "Cc1ccc(C#N)cc1-c1ccc2c(O[C@H](C)C(F)(F)F)nncc2c1"
  observable: "IC50"
  experimental_value: "80.8 nM"
- substance_smiles: "Cc1ccc(C(=O)NC2CC2)cc1-c1ccc2c([C@@](C)(O)C(F)(F)F)nncc2c1"
  observable: "IC50"
  experimental_value: "0.599 nM"

// next entry
Could you tell me which IC50 is on file for Cc1ccc(C(=O)NC2CC2)cc1-c1ccc2c(-c3ccc(S(=O)(=O)C(F)(F)F)cc3C)nncc2c1 ?
0.62 nM
